Values were extracted from PubChem BioAssay (EPA / NIEHS).

# AC50 per entry
experiment: CCTE_Shafer_MEA_acute_cross_correlation_HWHM: CCTE's Neural Acute Assay for Cross Correlation at Half Width at Half Maximum, Shafer Lab (AID 2284026);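 also: percent change per well from pre-dose baseline in spike cross-correlogram half width; hits are a decrease in cross-correlogram half width relative to DMSO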
Calls of active or inactive are those of the source. The calls were made as follows: active = hit-call score of the fitted dose curve at least 0.9, where 1 is the maximum; inactive = score below 0.9.

Take a look at these entries with their results.
Quick check: AC50 of CC(=O)OC(c1ccccc1)C(Cl)(Cl)Cl (stereo not drawn) ?
24.9 µM (active)

Quick check: AC50 of CCN1CCC2(CC1)COc1cc3c(cc12)N(C(=O)c1ccc(-c2ccc(-c4nnc(C)o4)cc2C)cc1)CC3 ?
31.2 µM (active)

# context switch: different compound, same AC50
Quick check: AC50 of CCC(C)(C)c1ccc(O)c(C(C)(C)CC)c1 ?
9.83 µM (active)
